Reference for the values: ChEMBL document CHEMBL1139752

System: Mycobacterium tuberculosis
METHOD: Antimycobacterial activity against isoniazid resistant Mycobacterium tuberculosis ATCC 35822
Assay type: functional
RECORDED_ENDPOINT: MIC (µg/mL)

COMPOUND | ASSAY_RESULT
C=CCCN1[C@@H](c2ccccc2)C[C@@]2(C[C@H]1c1ccccc1)N=C1C(=C3NC(=O)/C(C)=C\C=C\[C@H](C)[C@H](O)[C@@H](C)[C@H](O)[C@H](C)[C@H](OC(C)=O)[C@H](C)[C@@H](OC)/C=C/O[C@@]4(C)Oc5c(C)c(O)c(c1c5C4=O)C3=O)N2 | 0.02
CO[C@H]1/C=C/O[C@@]2(C)Oc3c(C)c(O)c4c(c3C2=O)C2=NC3(CCN(CC(C)C)CC3)NC2=C(NC(=O)/C(C)=C\C=C\[C@H](C)[C@H](O)[C@@H](C)[C@@H](O)[C@@H](C)[C@H](OC(C)=O)[C@@H]1C)C4=O [RIFABUTIN] | 0.02
COc1ccc([C@@H]2C[C@]3(C[C@H](c4ccc(OC)cc4)N2)N=C2C(=C4NC(=O)/C(C)=C\C=C\[C@H](C)[C@H](O)[C@@H](C)[C@H](O)[C@H](C)[C@H](OC(C)=O)[C@H](C)[C@@H](OC)/C=C/O[C@@]5(C)Oc6c(C)c(O)c(c2c6C5=O)C4=O)N3)cc1 | 0.02
